System: KB cells
Experiment: In vitro KB cell cytotoxicity assay (crystal violet)
Format: cell-based
Conditions: Homo sapiens, 72 h, 3 days culture, read-out: KB Cell Cytotoxicity TD50
Structures can show the parent of a compound that is named as a salt.
property measured: log10 of IC50 (log10 of the value in µg/mL)
The base-10 logarithm of IC50, taken with IC50 in µg/mL, is what appears here.

Answered examples (2):
- compound: "C[C@H](N)C(=O)NCC1CN2C(=O)CC2O1 (some centres unmarked) [Example 50B, hydrochloride]"
  system tested: "KB cells"
  log10 of IC50: -0.18
- compound: "CC(C)[C@H](NC(=O)[C@@H](N)CC(=O)O)C(=O)OCC1CN2C(=O)CC2O1 (some centres unmarked) [Example 57B]"
  system tested: "KB cells"
  log10 of IC50: 0.19

Give KB cells log10 of IC50 for the following compound: N[C@@H](CC(=O)O)C(=O)OC[C@H]1CN2C(=O)C[C@@H]2O1 (mixture of isomers) [Example 66B]
-0.69

With KB cells as the test system, provide measured log10 of IC50 for this compound: O=C(CCCCCBr)NC[C@@H]1CN2C(=O)C[C@H]2O1 (racemic)
-0.31

Fill in log10 of IC50 for C[C@@H](N)C(=O)NCC1CN2C(=O)CC2O1 (some centres unmarked) [Example 53B, hydrochloride] tested with KB cells.
-0.50

Fill in log10 of IC50 for O=C(NC[C@@H]1CN2C(=O)C[C@H]2O1)c1cc(F)ccc1F (racemic) tested with KB cells.
-0.42

GET log10 of IC50 where system = KB cells and item = N[C@@H](CC(=O)OC[C@H]1CN2C(=O)C[C@@H]2O1)C(=O)O (mixture of isomers) [Example 65B]
-0.35

Param request: log10 of IC50 | system KB cells | item O=C(CCl)NC[C@@H]1CN2C(=O)C[C@H]2O1 (racemic)
-1.08
